- TARGET_SYSTEM: UniProt Q9NR97
- Sequence (Q9NR97 27-1041): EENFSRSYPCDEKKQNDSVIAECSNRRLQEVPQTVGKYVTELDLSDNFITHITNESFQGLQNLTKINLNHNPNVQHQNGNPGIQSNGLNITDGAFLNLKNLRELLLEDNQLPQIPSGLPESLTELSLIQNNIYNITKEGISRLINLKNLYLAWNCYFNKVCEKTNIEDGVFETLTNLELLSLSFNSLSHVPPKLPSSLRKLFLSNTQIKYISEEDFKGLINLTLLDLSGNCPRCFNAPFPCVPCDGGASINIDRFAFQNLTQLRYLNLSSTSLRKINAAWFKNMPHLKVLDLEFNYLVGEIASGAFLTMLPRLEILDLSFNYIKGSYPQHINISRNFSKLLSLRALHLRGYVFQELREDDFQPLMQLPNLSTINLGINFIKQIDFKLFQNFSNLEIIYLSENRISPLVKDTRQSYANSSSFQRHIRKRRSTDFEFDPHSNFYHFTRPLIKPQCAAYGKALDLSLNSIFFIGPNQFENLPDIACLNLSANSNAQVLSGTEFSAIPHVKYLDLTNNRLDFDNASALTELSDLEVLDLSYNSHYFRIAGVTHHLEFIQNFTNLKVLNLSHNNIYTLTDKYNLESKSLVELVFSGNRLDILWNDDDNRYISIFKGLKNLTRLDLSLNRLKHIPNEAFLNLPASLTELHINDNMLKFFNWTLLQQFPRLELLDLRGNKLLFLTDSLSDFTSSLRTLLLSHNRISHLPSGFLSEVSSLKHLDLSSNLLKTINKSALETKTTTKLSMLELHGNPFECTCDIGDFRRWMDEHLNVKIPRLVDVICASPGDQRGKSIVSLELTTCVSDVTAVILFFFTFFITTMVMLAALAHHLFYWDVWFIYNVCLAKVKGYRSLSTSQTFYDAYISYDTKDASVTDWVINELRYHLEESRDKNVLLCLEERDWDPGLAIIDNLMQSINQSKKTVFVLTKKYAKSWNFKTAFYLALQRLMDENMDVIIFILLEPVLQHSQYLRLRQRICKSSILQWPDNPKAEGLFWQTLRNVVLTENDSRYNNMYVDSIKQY
- ASSAY_COMMENT: Human TLR8 Reporter Assay
- MEASUREMENT_PARAMETERS: HEK-Blue hTLR8 cells, 16 hours, normalized to tl8-506 (1 μM) and DMSO
MEASUREMENT_TYPE: pEC50
Give bare numbers, as −log10 of the molar value.

CCCNC(C)c1ccc(Cn2cc3nc(N)nc(N[C@H](CO)CCC)c3n2)c(OC)c1 (some centres unmarked) [Compound 232]: 7.11
CCCCNc1nc(N)nc2cn(Cc3c(OC)cc(CN)cc3OC)nc12 [Compound 66]: 6.70
CCCCNc1nc(N)nc2cn(Cc3ccc(C(N)CCN)cc3OC)nc12 (centres unmarked) [Compound 229]: 4.94
CCCCNc1nc(N)nc2cn(Cc3nc(C)no3)nc12 [Compound 170]: 5.35
CCCCNc1nc(N)nc2cn(Cc3c(OC)cc(N4CCNCC4)cc3OC)nc12 [Compound 64]: 6.46
CCCCNc1nc(N)nc2cn(Cc3c(OC)cc(C(C)NC)cc3OC)nc12 (centres unmarked) [Compound 211]: 6.70

Qu. With UniProt Q9NR97 as the test system, provide measured pEC50 for this compound: CCCCNc1nc(N)nc2cn(Cc3ccc(N4CCN(C(=O)[C@H]5CC[C@H](CN)CC5)CC4)cc3OC)nc12 [Compound 115]
Ans. 5.25

----------
- TARGET_SYSTEM: UniProtKB Q9NYK1
- Sequence (Q9NYK1 27-1049): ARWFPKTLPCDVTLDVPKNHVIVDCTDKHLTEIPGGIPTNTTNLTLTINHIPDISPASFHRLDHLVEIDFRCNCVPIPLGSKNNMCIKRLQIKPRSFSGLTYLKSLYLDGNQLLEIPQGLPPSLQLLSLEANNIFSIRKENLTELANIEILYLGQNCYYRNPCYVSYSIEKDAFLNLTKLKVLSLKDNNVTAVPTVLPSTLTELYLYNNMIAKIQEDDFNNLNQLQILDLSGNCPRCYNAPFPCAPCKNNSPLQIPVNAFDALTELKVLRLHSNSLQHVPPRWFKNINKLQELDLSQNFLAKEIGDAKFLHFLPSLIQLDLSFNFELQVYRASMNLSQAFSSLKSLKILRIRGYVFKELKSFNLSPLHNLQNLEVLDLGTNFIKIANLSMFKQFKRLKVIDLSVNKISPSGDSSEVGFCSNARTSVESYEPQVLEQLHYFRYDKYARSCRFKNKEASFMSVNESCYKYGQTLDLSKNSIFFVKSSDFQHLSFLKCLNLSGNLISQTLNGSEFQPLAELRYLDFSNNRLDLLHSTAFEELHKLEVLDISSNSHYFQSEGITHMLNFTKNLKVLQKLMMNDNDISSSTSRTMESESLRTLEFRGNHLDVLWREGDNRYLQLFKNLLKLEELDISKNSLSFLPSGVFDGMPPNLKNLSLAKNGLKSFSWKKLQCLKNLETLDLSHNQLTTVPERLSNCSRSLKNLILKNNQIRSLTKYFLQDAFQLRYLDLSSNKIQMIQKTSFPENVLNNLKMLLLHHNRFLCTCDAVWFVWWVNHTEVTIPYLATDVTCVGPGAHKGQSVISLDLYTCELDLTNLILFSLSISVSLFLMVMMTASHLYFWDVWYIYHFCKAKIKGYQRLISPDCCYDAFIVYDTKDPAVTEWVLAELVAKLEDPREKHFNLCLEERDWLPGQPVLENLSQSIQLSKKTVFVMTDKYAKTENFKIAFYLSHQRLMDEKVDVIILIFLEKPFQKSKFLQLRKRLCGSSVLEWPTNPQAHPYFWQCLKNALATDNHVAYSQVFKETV
- ASSAY_COMMENT: Human TLR7 Reporter Assay
- MEASUREMENT_PARAMETERS: HEK-Blue hTLR7 cells, 16 hours, normalized to CL097 (6 μM) and DMSO
Rule for this label: 1.0 means EC50 is less than 400 nM; 0.0 means EC50 is at least 400 nM.

Use these answered entries as a reference point.
CCCCNc1nc(N)nc2cn(Cc3ccc(CCNC)cc3OC)nc12 [Compound 147]: 1.0
CCCCNc1nc(N)nc2cn(Cc3ncccc3OC)nc12 [Compound 8]: 1.0
CCCCNc1nc(N)nc2cn(Cc3cc(CNC)ccc3OC)nc12 [Compound 148]: 1.0
CCCCNc1nc(N)nc2cn(Cc3ccc(C(C)NC)cc3OC)nc12 (stereo not drawn) [Compound 194]: 1.0

Could you now look at the following molecule, please?
Qu. Hi there! Is EC50 for CCCCNc1nc(N)nc2cn(Cc3ccc(C(C)NC)cc3OC)nc12 (stereo not drawn) [Compound 193] below 400 nM, do you know?
Ans. 1.0

Cited source for all entries: patent US20230219962A1
